Recorded values, source PubChem BioAssay (NCI).

system: NCI-H460 lung; experiment: NCI-60 one-dose screen, 48 h (100 = growth as untreated, 0 = no growth, -100 = all killed); details: 10 µM unless noted
The panel holds about 83,000 compounds, 20% with a hit somewhere; the sample as a whole holds those more often.
readoutLabel: growth (%)

compound	observedMeasurement
CCN(CC)CCCC(C)Nc1ccnc2ccc(Oc3ccccc3)cc12 (configuration not stated)	95.2
O=C1C=CN2C(=O)CC=CC2[C@@H]1O (some centres not stated)	121
CS(=O)(=O)c1ccc(Cl)c([N+](=O)[O-])c1	86.9
COc1cc([N+](=O)[O-])cc(OC)c1OC	109
Clc1cc2nc(-c3ccccc3)c(-c3ccccc3)nc2cc1Cl	94.8
Cn1cnc([N+](=O)[O-])c1S(=O)(=O)Oc1cccc2ccccc12	106
CN1C(=O)C(C(=O)/C=C/c2ccccc2C(=O)O)C(=O)N(C)C1=O	104
CCn1c(Cc2ccccc2Nc2c(Cl)cccc2Cl)nnc1SCC(=O)Nc1ccccc1C(F)(F)F	95.8
c1ccc2oc(-c3cnc4nonc4n3)cc2c1	95.8
COc1ccccc1/C=C/C(=O)CCC(=O)O	111
CCOC(=O)C#Cc1c(C(=O)OCC)nnn1[C@@H]1O[C@H](COC(C)=O)[C@@H](OC(C)=O)[C@H]1OC(C)=O	108
O=S1(=O)NCCN1CCNc1nccc(-c2c(-c3cccc(O)c3)nc3sccn23)n1	107
O=C(NCCN1CCCCC1)n1cc(-c2ccncc2)c(-c2ccc(Cl)c(O)c2)n1	91.5
CCN(CCC#N)c1ccccc1	107
COc1ccc(C(=O)N2N=C(c3ccc(F)cc3)CC2c2cn(-c3ccccc3)nc2-c2ccccc2)cc1 (configuration not stated)	53.3
N/C(=C\C(=O)n1nc(-c2ccccc2)cc1N)c1ccccc1	36
O=C(CC(=O)c1ccccc1F)Nc1ccc([N+](=O)[O-])cc1	104
CC(=O)c1ccc(Br)c([N+](=O)[O-])c1	109
CC(C)(C)c1ccc(C(=O)Nc2sc3cc(O)ccc3c2C(N)=O)cc1	51.2
COc1ccc2c(c1)C1=NN(C(=O)CO)[C@H](c3ccc(OC(F)(F)F)cc3)[C@@H]1CC2	103
COc1ccc(C2=NNC(c3ccc(Oc4nc5c(c(=O)n(C)c(=O)n5C)n4C)c(OC)c3)C2)cc1 (configuration not stated)	95
COc1cccc(N2CCN(c3ncnc4cc[nH]c34)CC2)c1	66.9

* * *

system: SK-MEL-2 melanoma; experiment: NCI-60 one-dose screen, 48 h; settings: 10 µM unless noted
The panel holds about 83,000 compounds, 20% with a hit somewhere; the sample as a whole holds those more often. The source made the active and inactive calls. The calls were made as follows: active = growth percent below 10; inactive = the rest.
Outcome codes: 1 (active), -1 (inactive)

compound	systemUnderTest	assignedLabel
COc1ccc(C(=O)OC2C(OC3C(O)COC(O[C@H]4C[C@H]5[C@@H]6CC=C7C[C@@H](O)CC[C@]7(C)[C@H]6CC[C@]5(C)[C@H]4[C@H](C)C(=O)CCC(C)C)C3OC(=O)C(C)C)OCC(O)C2O)cc1 (stereo partly drawn)	SK-MEL-2 melanoma	1
CC(C)c1cccc(C#N)c1	SK-MEL-2 melanoma	-1
Cc1nn(-c2ccccc2)c2nc3c(nc12)C1=NCCN1C(c1ccc(Cl)cc1)N3 (stereo not drawn)	SK-MEL-2 melanoma	-1
CC(=O)c1ccc(N2C(=O)c3ccc(Oc4ccccc4)cc3C2=O)cc1	SK-MEL-2 melanoma	-1
COc1ccc(CC2c3cc(OC)c(OC)cc3CC[N+]2(C)CCC(=O)OCCCCCOC(=O)CC[N+]2(C)CCc3cc(OC)c(OC)cc3C2Cc2ccc(OC)c(OC)c2)cc1OC (stereo not drawn)	SK-MEL-2 melanoma	-1
CC(=O)Nc1ccc(/C=N/N2CCCCCC2)cc1	SK-MEL-2 melanoma	-1
Cc1ccc(Nc2cc(Cl)c([N+](=O)[O-])cc2[N+](=O)[O-])cc1	SK-MEL-2 melanoma	-1
CCN(CC)c1ccc2c(cc1=O)[C@@H](NC(C)=O)CCc1cc(OC)c(OC)c(OC)c1-2	SK-MEL-2 melanoma	1
CC(CN1CCN(CC(C)Nc2ccnc3cc(Cl)ccc23)CC1)Nc1ccnc2cc(Cl)ccc12 (stereo not drawn)	SK-MEL-2 melanoma	1
Clc1ccccc1CNc1c2ccccc2nc2ccccc12	SK-MEL-2 melanoma	-1
CCOC(=O)c1ccc2c(c1)[n+](=O)c(C(=O)c1ccc3ccccc3c1)c(C(F)(F)F)n2[O-]	SK-MEL-2 melanoma	1
CCN(CC)c1ccc(/C=N/NC(=O)c2ccc(S(C)(=O)=O)cc2)c(O)c1	SK-MEL-2 melanoma	-1
N/C(=C\C(=O)n1nc(-c2ccccc2)cc1N)c1ccccc1	SK-MEL-2 melanoma	1
Cc1ccc2c(C)c3c(ccc4ccccc43)c[n+]2c1	SK-MEL-2 melanoma	-1
CN(C)CCNC(=O)n1cc(-c2ccncc2)c(-c2cc(O)cc(Cl)c2)n1	SK-MEL-2 melanoma	-1
O=c1c2cc(Cl)ccc2oc2ccc(OCCCCCN3CCCCCC3)cc12	SK-MEL-2 melanoma	-1
O=C(NO)c1ccc(CNc2cccc3nc(C4CC4)n(-c4ccccc4)c(=O)c23)cc1	SK-MEL-2 melanoma	-1
O=C(N/N=C/c1ccc([N+](=O)[O-])o1)c1ccc(O)cc1	SK-MEL-2 melanoma	-1
CCN(CC)CCCC(C)Nc1c(-c2ccccc2)cnc2cc(Cl)ccc12 (stereo not drawn)	SK-MEL-2 melanoma	-1
CCC1=CC2CN(C1)Cc1c([nH]c3ccccc13)[C@@](C(=O)OC)(c1cc3c(cc1OC)N(C)[C@H]1[C@@](O)(C(=O)OC)[C@H](OC(C)=O)[C@]4(CC)C=CCN5CC[C@]31[C@@H]54)C2 (stereo partly drawn)	SK-MEL-2 melanoma	1
CC(C)[C@@H]1C=C2CC[C@H]3[C@](C)(CN)CCC[C@]3(C)[C@H]2CC1	SK-MEL-2 melanoma	-1
C#Cc1cccc(Nc2nc3cc([N+](=O)[O-])ccc3nc2Nc2ccc(O)cc2)c1	SK-MEL-2 melanoma	1
O=C(O)CSc1ccc(NCc2oc(CO)cc(=O)c2O)cc1	SK-MEL-2 melanoma	-1
CC(C)(C)c1ccc(OC(=O)Nc2ccccc2)cc1	SK-MEL-2 melanoma	-1
Fc1ccc(-c2cnc3nonc3n2)c(F)c1	SK-MEL-2 melanoma	-1
COc1cc(C2CC(c3ccc(C)cc3)=NN2C=O)ccc1Oc1nc2c(c(=O)n(C)c(=O)n2C)n1C (stereo not drawn)	SK-MEL-2 melanoma	-1
NS(=O)(=O)c1ccc(CCn2c(SCC(=O)N/N=C/c3cccnc3)nc3ccccc3c2=O)cc1	SK-MEL-2 melanoma	-1
CC(C)CCC(=O)[C@@H](C)[C@H]1[C@@H](OC2OCC(O)C(O)C2NS(C)(=O)=O)C[C@H]2[C@@H]3CC=C4C[C@@H](O)CC[C@]4(C)[C@H]3CC[C@]12C (stereo partly drawn)	SK-MEL-2 melanoma	1
C=C1C(=O)O[C@H]2[C@H]1CC/C(COC(=O)NCc1c[nH]c3ccc(OC)cc13)=C\CC[C@@]1(C)O[C@@H]21	SK-MEL-2 melanoma	-1
Nc1ccc(C2=NNC(=O)Cc3cc4c(cc32)OCCO4)cc1Cl	SK-MEL-2 melanoma	-1
COc1ccc(-c2nc(SCCC(C)C)nc(Nc3ccc(C(=O)O)cc3)c2C#N)cc1	SK-MEL-2 melanoma	-1
CN1C(=O)NC(Cc2c[nH]c3c(Cl)cccc23)C1=O (stereo not drawn)	SK-MEL-2 melanoma	-1
COc1cc(NCCC2CCCCN2)c2ncccc2c1OC (stereo not drawn)	SK-MEL-2 melanoma	-1
COc1ccc2nc(C)cc(Sc3nc4ccccc4s3)c2c1	SK-MEL-2 melanoma	1
O=C1OCC2=C1C(c1ccccc1)c1cc3c(cc1N2CCO)OCO3 (stereo not drawn)	SK-MEL-2 melanoma	-1
ClCc1c(Cl)c(Cl)c(Cl)c(CCl)c1Cl	SK-MEL-2 melanoma	-1
CCCCOc1nc2ccc(C)cc2cc1/C=C/C(=O)/C=C(O)/C=C/c1cc2cc(C)ccc2nc1OCCCC	SK-MEL-2 melanoma	-1
O=C(CCl)N1c2ccccc2Oc2ccc3ccccc3c21	SK-MEL-2 melanoma	-1
